Tested on: M14 melanoma
Procedure Details: NCI-60 one-dose screen, 48 h
Condition Parameters: 10 µM unless noted
About 83,000 compounds went through this panel and 20% of them were active in at least one assay; those are over-represented in the sample as a whole. Active and inactive are the calls of the source. How the source made its calls: active means growth percent below 10; inactive means the rest.
Valid outcomes are listed here; reply with one: 1 (active), -1 (inactive)

Example entries and their recorded answers appear below.
{"columns": ["Molecule", "Assay System", "Label Value"],
 "data": [
  ["COC(=O)CNc1nc(N(C)O)nc(N(C)O)n1", "M14 melanoma", -1],
  ["C=C1C(=O)O[C@H]2[C@H]1CC/C(COC(=O)NCCc1c[nH]c3ccccc13)=C\\CC[C@@]1(C)O[C@@H]21", "M14 melanoma", 1],
  ["Cc1ccc2c(c1)c1nc3cc(C)c(C)cc3nc1n2CCN(C)C", "M14 melanoma", -1],
  ["COc1ccc(NC(=S)N/N=C/c2ccccc2SSCCC(=O)OC[C@H]2O[C@H](O)[C@H](O)[C@@H](O)[C@@H]2O)cc1", "M14 melanoma", -1],
  ["CCc1ccccc1NC(=O)c1sc2nc3c(cc2c1N)CCCC3", "M14 melanoma", -1],
  ["Cc1ccc(-c2nc([P+](c3ccccc3)(c3ccccc3)c3ccccc3)c(N3CCOCC3)o2)cc1", "M14 melanoma", 1]
]}

Ask: # lookup: test call for "COC(=O)[C@]12CC[C@@H](C)[C@H](C)[C@@H]1C1=CC[C@@H]3[C@@]4(C)CC(=O)[C@H](OC(=O)c5ccco5)[C@@]5(C)COC(=C45)C[C@@]3(C)[C@]1(C)CC2"
Result: -1

Ask: # lookup: test call for "CCOC(=O)C/C(=C\c1ccccc1)C(C)=O"
Result: -1

Ask: # lookup: test call for "COC(=O)[C@]12CC[C@@H](C)[C@H](C)[C@@H]1C1=CC[C@@H]3[C@@]4(C)C[C@@H](OC(C)=O)[C@H](OC(C)=O)[C@@](C)(COC(C)=O)[C@@H]4[C@H](O)C[C@@]3(C)[C@]1(C)CC2"
Result: -1

Ask: # lookup: test call for CC(=O)N1N=C(c2ccc(C)cc2)CC1c1ccc(Oc2ccc(Br)cc2)cc1 (stereo not drawn)
Result: -1

Ask: # lookup: test call for "COC(=O)[C@]12CC[C@@H](C)[C@H](C)[C@@H]1C1=CC[C@@H]3[C@@]4(C)C[C@@H](O)[C@H](O)[C@@](C)(CO)C4=CC[C@@]3(C)[C@]1(C)CC2"
Result: 1

Ask: # lookup: test call for "Cn1cc(-c2csc(-c3cn(CCCN4CCCCC4)c4ccccc34)n2)c2cccnc21"
Result: 1

Ask: # lookup: test call for "CC(=O)O[C@H]1CC[C@]2(C)[C@H]3C(=O)C=C4[C@@H]5C[C@](C)(C(=O)N6CCCNCC6)CC[C@]5(C)CC[C@@]4(C)[C@]3(C)CC[C@H]2C1(C)C"
Result: 1

Ask: # lookup: test call for "COc1ccc2c(c1)c(-c1nc(-c3c[nH]c4ncccc34)cs1)cn2CCNC(=O)OC(C)(C)C"
Result: -1

Ask: # lookup: test call for N#CC1=C(N)Oc2c(c(N)nn2-c2ccccc2)C1c1ccc(Cl)cc1 (stereo not drawn)
Result: -1

Ask: # lookup: test call for "O=c1[nH]ncc(Br)c1Br"
Result: 1

Ask: # lookup: test call for "C=C(C)[C@@H]1CC[C@]2(c3nnc(-c4ccncc4)o3)CC[C@]3(C)[C@H](CC[C@@H]4[C@@]5(C)CCC(=O)NC(C)(C)[C@@H]5CC[C@]43C)[C@@H]12"
Result: -1

Ask: # lookup: test call for "COc1ccc2nc(-c3cc(-c4cc(OC)c(OC)c(OC)c4)n[nH]3)[nH]c2c1"
Result: 1
